// data source = ChEMBL document CHEMBL3785078

testDescription: Disposition rate constant in patient (7 patients) with renal insufficiency at 350 mg/kg, po
measurementContext: human, in vivo
endpointLabel: k el (s⁻¹)
One number for each entry, in s⁻¹.

Exercise: Give the value of k el reported for the following: O=P1(N(CCCl)CCCl)NCCCO1 (stereo unspecified) [CYCLOPHOSPHAMIDE ANHYDROUS]
Solution: 1.92e-05
